MEASURED_ON: Aβ42 aggregates (Homo sapiens)
Construct: Aβ42 peptide (0.25 mg) (Calbiochem, Merck) was dissolved in hexafluoro-2-propanol; purchased Calbiochem, Merck
Sequence (P05067 672-713 limits assumed): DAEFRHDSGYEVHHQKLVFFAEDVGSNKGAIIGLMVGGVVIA
METHOD_SUMMARY: CD measurement, reversal assay (β-sheet band at 218 nm)
Type: biochemical
MEASUREMENT_SETUP: Aβ42 aggregates 20 μM, inhibitor 40 μM, six days at 37°C
Reported dissolution efficiency by CD, reversal assay values for the following compounds.
Write it as a number; the unit % goes unstated.

COMPOUND	MEASURED_ON	READOUT_VALUE
Cc1cn(CC(=O)N[C@@H](CCCCN)C(=O)N[C@@H](CC(C)C)C(=O)N[C@H](C(=O)N[C@@H](Cc2ccccc2)C(=O)N[C@@H](Cc2ccccc2)C(N)=O)C(C)C)c(=O)[nH]c1=O [P2]	Aβ42 aggregates (Homo sapiens)	40

**Query** Suppose we examine the compound CC(C)C[C@H](NC(=O)[C@H](CCCCN)NC(=O)CC1C(=O)NC(=O)NC1=O)C(=O)N[C@H](C(=O)N[C@@H](Cc1ccccc1)C(=O)N[C@@H](Cc1ccccc1)C(N)=O)C(C)C ; what dissolution efficiency by CD, reversal assay value has been reported?
**Result** 25
